- testedSystem: human alpha-thrombin (Homo sapiens)
assayReadout: Ki (nM)
One number for each entry, in nM.

Query N=C(N)N1CCCC(C[C@@H](C=O)NC(=O)CN2CCC[C@H](NS(=O)(=O)Cc3ccccc3)C2=O)C1 (single isomer, unassigned) [Isomer B] yields Ki of 0.318
